Molecular target: Ae. aegypti NPYLR7 (Aedes aegypti)
Sequence (U5N1H5 entry or part of it): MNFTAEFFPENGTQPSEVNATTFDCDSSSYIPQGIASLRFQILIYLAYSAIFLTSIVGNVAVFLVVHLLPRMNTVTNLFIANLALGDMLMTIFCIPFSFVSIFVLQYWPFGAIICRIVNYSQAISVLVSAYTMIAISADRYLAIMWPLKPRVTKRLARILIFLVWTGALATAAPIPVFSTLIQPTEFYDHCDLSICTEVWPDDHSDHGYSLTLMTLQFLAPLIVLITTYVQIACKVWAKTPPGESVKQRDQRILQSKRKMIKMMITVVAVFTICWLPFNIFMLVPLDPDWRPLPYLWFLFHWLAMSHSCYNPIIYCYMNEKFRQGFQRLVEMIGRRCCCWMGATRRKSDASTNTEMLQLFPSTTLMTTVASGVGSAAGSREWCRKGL
Assay: In vitro calcium (GCaMP6s) FLIPR assay in HEK293T cells transfected with NPYLR7
Format: cell-based
Details: EC50 of the individual assay date/plate (assay date); read-out: EC50
Method: The in vitro screening assay was adapted from, and carried out at HD Biosciences (HDB, Shanghai) as follows: HEK293T (Thermo Fisher Scientific) cells were grown in Dulbecco’s modified Eagle medium (DMEM) (high glucose, with glutamine), 10% fetal bovine serum, 1% penicillin–streptomycin (Pen/Strep), seeded in a 75 cm^2 flask, and incubated at 37 °C and 5% CO2. […] Data were collected in raw fluorescence units (RFU). […]
I'd be grateful if you could share measured EC50 for these entries.
# number only, unit nM dropped from output

Fill in: Ae. aegypti NPYLR7 (Aedes aegypti) EC50 for Cc1nc(NC(=N)N)nc2cc(N3CCc4ccccc4C3)ccc12 = 35500

Fill in: Ae. aegypti NPYLR7 (Aedes aegypti) EC50 for Cc1nc(NC(=N)N)nc2cc(OCc3ccc(OC(F)F)cc3)ccc12 = 1630

Fill in: Ae. aegypti NPYLR7 (Aedes aegypti) EC50 for CNc1nc(NC(=N)N)nc2cc(OCc3ccccc3)c(OC)cc12 = 490

Fill in: Ae. aegypti NPYLR7 (Aedes aegypti) EC50 for Cc1nc(NC(=N)N)nc2cc(OCC(F)(F)F)ccc12 = 4260

Fill in: Ae. aegypti NPYLR7 (Aedes aegypti) EC50 for Cc1nc(NC(=N)N)nc2cc(OCC3CCCCC3)ccc12 = 4430

Fill in: Ae. aegypti NPYLR7 (Aedes aegypti) EC50 for CCCOc1ccc2c(C)nc(NC(=N)N)nc2c1 = 2250

Fill in: Ae. aegypti NPYLR7 (Aedes aegypti) EC50 for CNc1nc(NC(=N)N)nc2cc(OCc3ccc(OC)cc3)c(OC)cc12 = 17.5

Fill in: Ae. aegypti NPYLR7 (Aedes aegypti) EC50 for COc1ccc(COc2ccc3c(C)nc(NC(=N)N)nc3c2)cn1 = 1320
